- Test target: Follicle-stimulating hormone receptor (Homo sapiens) (UniProt P23945)
- Sequence (P23945 whole entry): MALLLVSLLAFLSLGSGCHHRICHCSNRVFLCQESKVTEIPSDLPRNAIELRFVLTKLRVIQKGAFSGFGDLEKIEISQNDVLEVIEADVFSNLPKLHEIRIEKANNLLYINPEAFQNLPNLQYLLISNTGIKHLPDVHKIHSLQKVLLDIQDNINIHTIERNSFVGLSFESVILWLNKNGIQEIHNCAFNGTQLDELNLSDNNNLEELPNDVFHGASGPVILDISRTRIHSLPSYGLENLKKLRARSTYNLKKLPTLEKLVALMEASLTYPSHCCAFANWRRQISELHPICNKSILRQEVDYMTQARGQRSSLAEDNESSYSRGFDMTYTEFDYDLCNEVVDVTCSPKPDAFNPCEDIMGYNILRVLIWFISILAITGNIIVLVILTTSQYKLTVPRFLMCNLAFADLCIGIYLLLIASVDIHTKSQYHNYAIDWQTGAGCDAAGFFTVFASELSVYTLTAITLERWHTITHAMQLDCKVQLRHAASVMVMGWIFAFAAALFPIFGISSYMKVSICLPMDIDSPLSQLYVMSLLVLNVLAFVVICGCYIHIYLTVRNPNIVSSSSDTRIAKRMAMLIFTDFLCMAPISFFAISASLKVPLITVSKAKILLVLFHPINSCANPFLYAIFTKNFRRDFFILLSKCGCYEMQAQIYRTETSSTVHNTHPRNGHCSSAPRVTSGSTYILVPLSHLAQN
- Assay notes: Antagonist activity at human FSHR expressed in CHO-K1 cells at 20 uM by PathHunter beta-arrestin assay relative to control
- Format: cell-based
- Conditions: filed as antagonist
Parameter: inhibition (%)

Compound smiles | Unit symbol | Value
COC(=O)[C@@H]1[C@H]2C[C@H]3c4[nH]c5ccccc5c4CCN3C[C@@H]2CC[C@@H]1O | % | 4
COC(=O)[C@@H]1[C@H]2C[C@@H]([C@@]3(CCn4cc(CCCCO)nn4)C(=O)Nc4ccccc43)N(C#N)C[C@@H]2CC[C@@H]1O | % | 2
COC(=O)[C@@H]1[C@H]2C[C@@H](OCc3ccc(Br)cc3)c3[nH]c4ccccc4c3CCN(C#N)C[C@@H]2CC[C@@H]1O | % | 94
COC(=O)[C@@H]1[C@H]2C[C@@H]3OCc4ccccc4-n4c3c(c3ccccc34)CCN(C#N)C[C@@H]2CC[C@@H]1O | % | 5
COC(=O)[C@@H]1[C@H]2C[C@H]3OCc4ccccc4-n4c3c(c3ccccc34)CCN(C#N)C[C@@H]2CC[C@@H]1O | % | 12
COC(=O)[C@@H]1[C@H]2C[C@@H](c3[nH]c4ccccc4c3CCn3cc(-c4cccc(Cl)c4)nn3)N(C#N)C[C@@H]2CC[C@@H]1O | % | 51
COC(=O)[C@@H]1[C@H]2C[C@@H]3N(CC[C@@]34C(=O)N(Cc3cccc(OC)c3)c3ccccc34)C[C@@H]2CC[C@@H]1OCc1cccc(OC)c1 | % | 56
COC(=O)[C@@H]1[C@H]2C[C@@H]3N(CC[C@@]34C(=O)N(c3cncc(OC)n3)c3ccccc34)C[C@@H]2CC[C@@H]1O | % | 11

* * *

- Test target: CX3C chemokine receptor 1 (Homo sapiens)
- Sequence (P49238 whole entry): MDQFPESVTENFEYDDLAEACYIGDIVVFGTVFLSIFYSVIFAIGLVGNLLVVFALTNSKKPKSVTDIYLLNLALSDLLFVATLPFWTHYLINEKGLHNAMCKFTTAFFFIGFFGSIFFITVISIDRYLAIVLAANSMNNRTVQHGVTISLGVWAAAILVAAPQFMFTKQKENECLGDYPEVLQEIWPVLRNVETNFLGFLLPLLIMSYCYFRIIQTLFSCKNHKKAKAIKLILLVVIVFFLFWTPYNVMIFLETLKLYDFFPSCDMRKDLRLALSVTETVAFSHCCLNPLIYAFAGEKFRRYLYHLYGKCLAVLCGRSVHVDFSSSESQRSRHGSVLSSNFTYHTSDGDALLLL
- Assay notes: Antagonist activity at human CX3CR1 expressed in CHO-K1 cells by PathHunter beta-arrestin assay
pIC50: −log10 of the molar value.

Compound smiles | pIC50
COC(=O)[C@@H]1[C@H]2C[C@@H](c3[nH]c4ccccc4c3CCn3cc(-c4cccc(Cl)c4)nn3)N(C#N)C[C@@H]2CC[C@@H]1O | 5.07

* * *

- Test target: Oxytocin receptor (Homo sapiens)
- Assay notes: Agonist activity at human OXTR expressed in CHO-K1 cells at 20 uM by PathHunter beta-arrestin assay relative to control
- Format: cell-based
The source made the active and inactive calls. The calls are words filed in the database; no cut-off is given here.
Parameter: Activity

Compound smiles | Value
COC(=O)[C@@H]1[C@H]2C[C@@H]([C@@]3(CCn4cc(CCCCO)nn4)C(=O)Nc4ccccc43)N(C#N)C[C@@H]2CC[C@@H]1O | inactive
COC(=O)[C@@H]1[C@H]2C[C@H]3OCc4ccccc4-n4c3c(c3ccccc34)CCN(C#N)C[C@@H]2CC[C@@H]1O | inactive
COC(=O)[C@@H]1[C@H]2C[C@@H]3N(CC[C@@]34C(=O)N(c3cncc(OC)n3)c3ccccc34)C[C@@H]2CC[C@@H]1O | inactive
COC(=O)[C@@H]1[C@H]2C[C@@H](c3[nH]c4ccccc4c3CCn3cc(-c4cccc(Cl)c4)nn3)N(C#N)C[C@@H]2CC[C@@H]1O | inactive
COC(=O)[C@@H]1[C@H]2C[C@H]3c4[nH]c5ccccc5c4CCN3C[C@@H]2CC[C@@H]1O | inactive
COC(=O)[C@@H]1[C@H]2C[C@@H]3OCc4ccccc4-n4c3c(c3ccccc34)CCN(C#N)C[C@@H]2CC[C@@H]1O | inactive
COC(=O)[C@@H]1[C@H]2C[C@@H]3N(CC[C@@]34C(=O)N(Cc3cccc(OC)c3)c3ccccc34)C[C@@H]2CC[C@@H]1OCc1cccc(OC)c1 | inactive
COC(=O)[C@@H]1[C@H]2C[C@@H](OCc3ccc(Br)cc3)c3[nH]c4ccccc4c3CCN(C#N)C[C@@H]2CC[C@@H]1O | inactive

* * *

- Test target: C-C chemokine receptor type 3 (Homo sapiens) (UniProt P51677)
- Sequence (P51677 whole entry): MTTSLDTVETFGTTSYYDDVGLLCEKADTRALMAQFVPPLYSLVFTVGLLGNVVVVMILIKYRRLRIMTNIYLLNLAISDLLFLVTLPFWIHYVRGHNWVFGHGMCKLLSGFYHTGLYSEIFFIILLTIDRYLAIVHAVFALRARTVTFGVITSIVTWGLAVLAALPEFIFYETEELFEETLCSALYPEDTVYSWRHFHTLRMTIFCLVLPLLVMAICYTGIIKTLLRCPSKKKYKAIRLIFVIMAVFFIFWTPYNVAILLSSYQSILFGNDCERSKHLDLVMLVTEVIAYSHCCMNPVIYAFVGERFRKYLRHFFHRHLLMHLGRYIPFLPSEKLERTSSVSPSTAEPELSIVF
- Assay notes: Agonist activity at human CCR3 expressed in CHO-K1 cells at 20 uM by PathHunter beta-arrestin assay relative to control
- Type: cell-based
Active and inactive are the calls of the source. No cut-off for these calls is given here.

Compound smiles | Test target | Activity
COC(=O)[C@@H]1[C@H]2C[C@@H]3N(CC[C@@]34C(=O)N(Cc3cccc(OC)c3)c3ccccc34)C[C@@H]2CC[C@@H]1OCc1cccc(OC)c1 | C-C chemokine receptor type 3 (Homo sapiens) (UniProt P51677) | inactive
COC(=O)[C@@H]1[C@H]2C[C@@H]([C@@]3(CCn4cc(CCCCO)nn4)C(=O)Nc4ccccc43)N(C#N)C[C@@H]2CC[C@@H]1O | C-C chemokine receptor type 3 (Homo sapiens) (UniProt P51677) | inactive
COC(=O)[C@@H]1[C@H]2C[C@H]3OCc4ccccc4-n4c3c(c3ccccc34)CCN(C#N)C[C@@H]2CC[C@@H]1O | C-C chemokine receptor type 3 (Homo sapiens) (UniProt P51677) | inactive

* * *

- Test target: C-C chemokine receptor type 3 (Homo sapiens)
- Sequence (P51677 whole entry): as the sequence (P51677 whole entry) above
- Assay notes: Antagonist activity at human CCR3 expressed in CHO-K1 cells by PathHunter beta-arrestin assay
pIC50: −log10 of the molar value.
Parameter: pIC50

Compound smiles | Parameter | Value
COC(=O)[C@@H]1[C@H]2C[C@@H](c3[nH]c4ccccc4c3CCn3cc(-c4cccc(Cl)c4)nn3)N(C#N)C[C@@H]2CC[C@@H]1O | pIC50 | 5.08

* * *

- Test target: C-X-C chemokine receptor type 4 (Homo sapiens, UniProt P61073)
- Sequence (P61073 whole entry): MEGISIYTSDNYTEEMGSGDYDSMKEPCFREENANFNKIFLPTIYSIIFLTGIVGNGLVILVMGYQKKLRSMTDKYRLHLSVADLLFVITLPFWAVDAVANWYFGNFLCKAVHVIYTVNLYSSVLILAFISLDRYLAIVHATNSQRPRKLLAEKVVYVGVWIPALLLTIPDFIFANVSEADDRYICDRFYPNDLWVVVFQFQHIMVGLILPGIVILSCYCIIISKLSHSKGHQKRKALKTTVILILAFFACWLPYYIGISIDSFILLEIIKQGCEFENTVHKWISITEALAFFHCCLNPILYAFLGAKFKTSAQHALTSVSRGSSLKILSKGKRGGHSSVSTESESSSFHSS
- Assay notes: Antagonist activity at human CXCR4 expressed in mouse C2C12 cells at 20 uM by PathHunter beta-arrestin assay relative to control
- Assay type: cell-based
- Conditions: filed as antagonist

Compound smiles | inhibition
COC(=O)[C@@H]1[C@H]2C[C@@H](OCc3ccc(Br)cc3)c3[nH]c4ccccc4c3CCN(C#N)C[C@@H]2CC[C@@H]1O | 29%
COC(=O)[C@@H]1[C@H]2C[C@H]3OCc4ccccc4-n4c3c(c3ccccc34)CCN(C#N)C[C@@H]2CC[C@@H]1O | 10%
COC(=O)[C@@H]1[C@H]2C[C@@H](c3[nH]c4ccccc4c3CCn3cc(-c4cccc(Cl)c4)nn3)N(C#N)C[C@@H]2CC[C@@H]1O | 125%
COC(=O)[C@@H]1[C@H]2C[C@@H]3N(CC[C@@]34C(=O)N(Cc3cccc(OC)c3)c3ccccc34)C[C@@H]2CC[C@@H]1OCc1cccc(OC)c1 | 39%

* * *

- Test target: Oxytocin receptor (Homo sapiens)
- Assay notes: Antagonist activity at human OXTR expressed in CHO-K1 cells at 20 uM by PathHunter beta-arrestin assay relative to control
- Type: cell-based
- Conditions: filed as antagonist
List of inhibition values.

Compound smiles | Test target | Unit symbol | inhibition
COC(=O)[C@@H]1[C@H]2C[C@@H]3N(CC[C@@]34C(=O)N(Cc3cccc(OC)c3)c3ccccc34)C[C@@H]2CC[C@@H]1OCc1cccc(OC)c1 | Oxytocin receptor (Homo sapiens) | % | 97
COC(=O)[C@@H]1[C@H]2C[C@H]3c4[nH]c5ccccc5c4CCN3C[C@@H]2CC[C@@H]1O | Oxytocin receptor (Homo sapiens) | % | 5
COC(=O)[C@@H]1[C@H]2C[C@@H]3OCc4ccccc4-n4c3c(c3ccccc34)CCN(C#N)C[C@@H]2CC[C@@H]1O | Oxytocin receptor (Homo sapiens) | % | 27
COC(=O)[C@@H]1[C@H]2C[C@@H](c3[nH]c4ccccc4c3CCn3cc(-c4cccc(Cl)c4)nn3)N(C#N)C[C@@H]2CC[C@@H]1O | Oxytocin receptor (Homo sapiens) | % | 9

* * *

- Test target: CX3C chemokine receptor 1 (Homo sapiens) (UniProt P49238)
- Assay notes: Antagonist activity at human CX3CR1 expressed in CHO-K1 cells at 20 uM by PathHunter beta-arrestin assay relative to control
- Type: cell-based
- Conditions: filed as antagonist
inhibition values by entry
Parameter: inhibition (%)

Compound smiles | Value
COC(=O)[C@@H]1[C@H]2C[C@H]3c4[nH]c5ccccc5c4CCN3C[C@@H]2CC[C@@H]1O | 22
COC(=O)[C@@H]1[C@H]2C[C@@H]3OCc4ccccc4-n4c3c(c3ccccc34)CCN(C#N)C[C@@H]2CC[C@@H]1O | 20
COC(=O)[C@@H]1[C@H]2C[C@@H]([C@@]3(CCn4cc(CCCCO)nn4)C(=O)Nc4ccccc43)N(C#N)C[C@@H]2CC[C@@H]1O | 11
COC(=O)[C@@H]1[C@H]2C[C@H]3OCc4ccccc4-n4c3c(c3ccccc34)CCN(C#N)C[C@@H]2CC[C@@H]1O | 9
COC(=O)[C@@H]1[C@H]2C[C@@H](c3[nH]c4ccccc4c3CCn3cc(-c4cccc(Cl)c4)nn3)N(C#N)C[C@@H]2CC[C@@H]1O | 92
COC(=O)[C@@H]1[C@H]2C[C@@H]3N(CC[C@@]34C(=O)N(Cc3cccc(OC)c3)c3ccccc34)C[C@@H]2CC[C@@H]1OCc1cccc(OC)c1 | 72
COC(=O)[C@@H]1[C@H]2C[C@@H](OCc3ccc(Br)cc3)c3[nH]c4ccccc4c3CCN(C#N)C[C@@H]2CC[C@@H]1O | 53
COC(=O)[C@@H]1[C@H]2C[C@@H]3N(CC[C@@]34C(=O)N(c3cncc(OC)n3)c3ccccc34)C[C@@H]2CC[C@@H]1O | 9
